- ASSAYED TARGET: 5-HT2A (Homo sapiens, UniProt P28223)
- Sequence (P28223 whole entry): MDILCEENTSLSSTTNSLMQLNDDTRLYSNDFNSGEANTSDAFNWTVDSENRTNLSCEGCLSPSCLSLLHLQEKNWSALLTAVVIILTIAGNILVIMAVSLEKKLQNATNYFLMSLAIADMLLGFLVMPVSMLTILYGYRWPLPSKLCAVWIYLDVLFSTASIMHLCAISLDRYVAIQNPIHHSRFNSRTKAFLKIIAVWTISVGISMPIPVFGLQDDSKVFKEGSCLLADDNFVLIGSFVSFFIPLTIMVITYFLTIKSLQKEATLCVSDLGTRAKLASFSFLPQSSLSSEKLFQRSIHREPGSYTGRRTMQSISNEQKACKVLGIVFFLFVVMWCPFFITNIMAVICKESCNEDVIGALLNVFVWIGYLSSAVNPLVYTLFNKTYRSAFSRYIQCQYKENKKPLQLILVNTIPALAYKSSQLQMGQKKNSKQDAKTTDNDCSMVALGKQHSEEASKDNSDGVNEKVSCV
- ASSAY REMARKS: Serotonin 5-HT2A in vitro cellular IPOne agonism assay
- Format: cell-based
- Parameters: host or cells: CHO-K1
- TEST CONDITIONS: benzothiophenes; CHO-K1 cells, 60 min
MEASURED ATTRIBUTE: EC50

Ask | What value of EC50 has been recorded for this entry: `FC(F)(F)CN1CCc2sc3ccccc3c2CC1`
Reply | > 10000 nM

Ask | What value of EC50 has been recorded for this entry: `FC(F)(F)Oc1ccc2c3c(sc2c1)CCNCC3`
Reply | 101 to 1000 nM

Ask | What value of EC50 has been recorded for this entry: `Oc1ccc2c3c(sc2c1)CCNCC3`
Reply | 101 to 1000 nM

Ask | What value of EC50 has been recorded for this entry: `Fc1ccc2c3c(sc2c1)CCN(C1CCC1)CC3`
Reply | > 10000 nM

Ask | What value of EC50 has been recorded for this entry: `COc1ccc2c3c(sc2c1)CCNCC3`
Reply | 101 to 1000 nM

Ask | What value of EC50 has been recorded for this entry: `Fc1ccc2c3c(sc2c1)CCNCC3`
Reply | < 10 nM

Ask | What value of EC50 has been recorded for this entry: `CN1CCc2sc3cc(OC(F)(F)F)ccc3c2CC1`
Reply | > 10000 nM

Ask | What value of EC50 has been recorded for this entry: `COc1ccc2c3c(sc2c1)CCN(CC(F)(F)F)CC3`
Reply | > 10000 nM

Ask | What value of EC50 has been recorded for this entry: `FC(F)(F)Oc1cccc2sc3c(c12)CCNCC3`
Reply | 10 to 100 nM

Ask | What value of EC50 has been recorded for this entry: `c1ccc2c3c(sc2c1)CCNCC3`
Reply | 101 to 1000 nM

Ask | What value of EC50 has been recorded for this entry: `FC(F)(F)Oc1cccc2sc3c(c12)CCN(C1CCC1)CC3`
Reply | 1000 to 10000 nM

Ask | What value of EC50 has been recorded for this entry: `c1ccc(COc2ccc3c4c(sc3c2)CCN(C2CCC2)CC4)cc1`
Reply | > 10000 nM

Ask | What value of EC50 has been recorded for this entry: `CN1CCc2sc3cc(F)ccc3c2CC1`
Reply | 10 to 100 nM

Ask | What value of EC50 has been recorded for this entry: `c1ccc(COc2ccc3c4c(sc3c2)CCNCC4)cc1`
Reply | > 10000 nM

Ask | What value of EC50 has been recorded for this entry: `c1ccc2c3c(sc2c1)CCN(C1CCC1)CC3`
Reply | > 10000 nM

Ask | What value of EC50 has been recorded for this entry: `CN1CCc2sc3ccccc3c2CC1`
Reply | 101 to 1000 nM

Ask | What value of EC50 has been recorded for this entry: `Fc1ccc2c3c(sc2c1)CCN(CC(F)(F)F)CC3`
Reply | > 10000 nM

Ask | What value of EC50 has been recorded for this entry: `COc1ccc2c3c(sc2c1)CCN(C1CCC1)CC3`
Reply | > 10000 nM

Ask | What value of EC50 has been recorded for this entry: `CN1CCc2sc3cc(OCc4ccccc4)ccc3c2CC1`
Reply | > 10000 nM

Ask | What value of EC50 has been recorded for this entry: `FC(F)(F)Oc1ccc2c3c(sc2c1)CCN(C1CCC1)CC3`
Reply | > 10000 nM

Ask | What value of EC50 has been recorded for this entry: `COc1ccc2c3c(sc2c1)CCN(C)CC3`
Reply | 1000 to 10000 nM

* * *

For each entry below, report its pIC50 value.
- ASSAYED TARGET: 5-HT2A (Homo sapiens)
- ASSAY REMARKS: Serotonin 5-HT2A in vitro radioligand binding competition assay
- Parameters: purchased Epics Therapeutics S.A. (Belgium), contract assay FAST-0505B; host or cells: membrane extracts
- TEST CONDITIONS: benzofurans; [3H]-DOI radiotracer, membrane extracts; read-out: 5HT2A R[…] ACTIVITY
pIC50: −log10 of the molar value.

Ask | What value of pIC50 has been recorded for this entry: `CN1CCc2oc3cc(C(F)(F)F)ccc3c2CC1`
Reply | 5.00 to 6.00

Ask | What value of pIC50 has been recorded for this entry: `CN1CCCc2oc3cccc(OCc4ccccc4)c3c2C1`
Reply | 7.00 to 8.00

Ask | What value of pIC50 has been recorded for this entry: `CN1CCCc2oc3ccccc3c2C1`
Reply | < 5.00

Ask | What value of pIC50 has been recorded for this entry: `c1ccc2c3c(oc2c1)CCNCC3`
Reply | 6.00 to 7.00

Ask | What value of pIC50 has been recorded for this entry: `COc1cccc2oc3c(c12)CNCCC3`
Reply | 5.00 to 6.00

Ask | What value of pIC50 has been recorded for this entry: `Fc1cccc2oc3c(c12)CN(CC(F)(F)F)CCC3`
Reply | < 5.00

Ask | What value of pIC50 has been recorded for this entry: `c1ccc(COc2cccc3oc4c(c23)CNCCC4)cc1`
Reply | 5.00 to 6.00

Ask | What value of pIC50 has been recorded for this entry: `Fc1ccc2c3c(oc2c1)CCCNC3`
Reply | < 5.00

Ask | What value of pIC50 has been recorded for this entry: `FC(F)(F)CN1CCCc2oc3ccccc3c2C1`
Reply | < 5.00

Ask | What value of pIC50 has been recorded for this entry: `Fc1cccc2oc3c(c12)CNCCC3`
Reply | < 5.00

Ask | What value of pIC50 has been recorded for this entry: `COc1cccc2oc3c(c12)CCN(C1CCC1)CC3`
Reply | 5.00 to 6.00

Ask | What value of pIC50 has been recorded for this entry: `COc1cccc2oc3c(c12)CCNCC3`
Reply | 6.00 to 7.00

Ask | What value of pIC50 has been recorded for this entry: `COc1ccc2c3c(oc2c1)CCN(C)CC3`
Reply | 5.00 to 6.00

Ask | What value of pIC50 has been recorded for this entry: `CN1CCc2oc3cc(F)ccc3c2CC1`
Reply | 6.00 to 7.00

Ask | What value of pIC50 has been recorded for this entry: `c1ccc2c3c(oc2c1)CCN(C1CCC1)CC3`
Reply | 5.00 to 6.00

Ask | What value of pIC50 has been recorded for this entry: `c1ccc(COc2cccc3oc4c(c23)CCNCC4)cc1`
Reply | 6.00 to 7.00

Ask | What value of pIC50 has been recorded for this entry: `CN1CCc2oc3ccccc3c2CC1`
Reply | 6.00 to 7.00

Ask | What value of pIC50 has been recorded for this entry: `FC(F)(F)Oc1ccc2c3c(oc2c1)CCCNC3`
Reply | 5.00 to 6.00

Ask | What value of pIC50 has been recorded for this entry: `c1ccc(COc2ccc3c4c(oc3c2)CCNCC4)cc1`
Reply | 5.00 to 6.00

Ask | What value of pIC50 has been recorded for this entry: `FC(F)(F)Oc1ccc2c3c(oc2c1)CCNCC3`
Reply | 5.00 to 6.00

Ask | What value of pIC50 has been recorded for this entry: `COc1ccc2c3c(oc2c1)CCNCC3`
Reply | 5.00 to 6.00

Ask | What value of pIC50 has been recorded for this entry: `CN1CCCc2oc3cc(C(F)(F)F)ccc3c2C1`
Reply | 5.00 to 6.00

Ask | What value of pIC50 has been recorded for this entry: `c1ccc2c3c(oc2c1)CCCN(C1CCC1)C3`
Reply | < 5.00

Ask | What value of pIC50 has been recorded for this entry: `COc1cccc2oc3c(c12)CN(C1CCC1)CCC3`
Reply | 5.00 to 6.00

Ask | What value of pIC50 has been recorded for this entry: `FC(F)(F)c1ccc2c3c(oc2c1)CCNCC3`
Reply | 5.00 to 6.00

Ask | What value of pIC50 has been recorded for this entry: `Fc1ccc2c3c(oc2c1)CCNCC3`
Reply | 6.00 to 7.00

Ask | What value of pIC50 has been recorded for this entry: `CN1CCCc2oc3cc(F)ccc3c2C1`
Reply | 5.00 to 6.00

Ask | What value of pIC50 has been recorded for this entry: `CN1CCCc2oc3cccc(F)c3c2C1`
Reply | 5.00 to 6.00

Ask | What value of pIC50 has been recorded for this entry: `CN1CCc2oc3cc(OC(F)(F)F)ccc3c2CC1`
Reply | 5.00 to 6.00

Ask | What value of pIC50 has been recorded for this entry: `Fc1cccc2oc3c(c12)CN(C1CCC1)CCC3`
Reply | < 5.00

Ask | What value of pIC50 has been recorded for this entry: `Fc1cccc2oc3c(c12)CCNCC3`
Reply | 6.00 to 7.00

Ask | What value of pIC50 has been recorded for this entry: `COc1ccc2c3c(oc2c1)CCCN(C1CCC1)C3`
Reply | < 5.00

Ask | What value of pIC50 has been recorded for this entry: `CN1CCc2oc3cc(OCc4ccccc4)ccc3c2CC1`
Reply | 6.00 to 7.00

Ask | What value of pIC50 has been recorded for this entry: `COc1ccc2c3c(oc2c1)CCN(C1CCC1)CC3`
Reply | < 5.00

Ask | What value of pIC50 has been recorded for this entry: `FC(F)(F)c1ccc2c3c(oc2c1)CCCNC3`
Reply | 5.00 to 6.00

Ask | What value of pIC50 has been recorded for this entry: `COc1ccc2c3c(oc2c1)CCCNC3`
Reply | < 5.00

Ask | What value of pIC50 has been recorded for this entry: `CN1CCCc2oc3cc(OCc4ccccc4)ccc3c2C1`
Reply | 6.00 to 7.00

Ask | What value of pIC50 has been recorded for this entry: `Fc1cccc2oc3c(c12)CCN(C1CCC1)CC3`
Reply | 5.00 to 6.00

Ask | What value of pIC50 has been recorded for this entry: `CN1CCc2oc3cccc(F)c3c2CC1`
Reply | 6.00 to 7.00

Ask | What value of pIC50 has been recorded for this entry: `Fc1cccc2oc3c(c12)CCN(CC(F)(F)F)CC3`
Reply | < 5.00

Ask | What value of pIC50 has been recorded for this entry: `c1ccc2c3c(oc2c1)CCCNC3`
Reply | < 5.00

Ask | What value of pIC50 has been recorded for this entry: `CN1CCCc2oc3cc(OC(F)(F)F)ccc3c2C1`
Reply | < 5.00

Ask | What value of pIC50 has been recorded for this entry: `c1ccc(COc2ccc3c4c(oc3c2)CCCNC4)cc1`
Reply | 5.00 to 6.00

Ask | What value of pIC50 has been recorded for this entry: `FC(F)(F)CN1CCc2oc3ccccc3c2CC1`
Reply | < 5.00

Ask | What value of pIC50 has been recorded for this entry: `COc1ccc2c3c(oc2c1)CCCN(C)C3`
Reply | < 5.00

Ask | What value of pIC50 has been recorded for this entry: `COc1ccc2c3c(oc2c1)CCCN(CC(F)(F)F)C3`
Reply | < 5.00

Each recorded value in this set is attributed to patent US20250051346A1.
